Target: Dihydrofolate reductase (Staphylococcus aureus, UniProt P0A017)
Sequence (P0A017 2-159 limits assumed): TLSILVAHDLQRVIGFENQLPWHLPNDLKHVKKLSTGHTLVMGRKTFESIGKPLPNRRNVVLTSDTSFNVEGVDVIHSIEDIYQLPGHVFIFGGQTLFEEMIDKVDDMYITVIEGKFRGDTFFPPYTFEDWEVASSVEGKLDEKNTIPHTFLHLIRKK
Experiment: Inhibitory activity of TMP-Resistance DHFR against Staphylococcus aureus 157/4696
Quantity Kind: IC50 (µM)
Please state the figure in µM; there is no need to write the unit.

[in] Entry under review: "COc1cc2c(cc1OC)CN(Cc1cnc(N)nc1N)CC2" . Reported IC50?
[out] 30

----------
Target: Dihydrofolate reductase (Staphylococcus aureus)
Test: Inhibitory activity against TMP-Resistance Dihydrofolate reductase from Staphylococcus aureus 157/4696
What pIC50 was measured for each of the following?
As a rule, pIC50 stands for the negative log10 of the concentration, concentration in M.

[in] Dihydrofolate reductase (Staphylococcus aureus) / pIC50 / "COc1cc2c(c3c1OCO3)[C@H](C)N(Cc1cnc(N)nc1N)CC2" : value?
[out] 5.27

[in] Dihydrofolate reductase (Staphylococcus aureus) / pIC50 / COc1cc2c(cc1OC)C(c1ccc(Cl)cc1Cl)CN(Cc1cnc(N)nc1N)C2 (centres undefined) : value?
[out] 5.70

[in] Dihydrofolate reductase (Staphylococcus aureus) / pIC50 / "COc1cc2c(c3c1OCO3)[C@@H](C)N(Cc1cnc(N)nc1N)CC2" : value?
[out] 5.89

[in] Dihydrofolate reductase (Staphylococcus aureus) / pIC50 / "Nc1ncc(CN2CCc3ccccc3C2)c(N)n1" : value?
[out] 4.40
